Give measured Inhibition for each item. Keep answers brief.
system: Plasmodium falciparum; assay: GSK_TCMDC: Inhibition of Plasmodium falciparum Dd2 in whole red blood cells, using parasite LDH activity as an index of growth. Test compounds present at 2uM; format: functional
Please make sure the unit comes right after the number.

- molecule: "O=C(Cc1ccccc1)NC(Nc1ccc([N+](=O)[O-])cc1)C(Cl)(Cl)Cl (stereo not given)"
  result: "100%"
- molecule: "CCn1c(Sc2ccc([N+](=O)[O-])c(C#N)c2)nnc1-c1ccc(Cl)cc1"
  result: "7%"
- molecule: "Cc1cc2nc(-c3ccc(C(=O)NCc4ccc(Cl)c(Cl)c4)cc3)[nH]c2cc1C"
  result: "83%"

Go through the list and state Inhibition for each entry.
1. O=S(=O)(c1c(Cl)cc(Cl)cc1Cl)N1CCCCC(c2ccc(F)c(F)c2)=N1
2. CCC(C)c1ccc(NC(=O)C(C)c2ccc([N+](=O)[O-])cc2)cc1 (stereo not given)
3. CCc1nc2nc(C)cc(Nc3ccc4c(c3)OCCO4)n2n1
4. COc1cccc(Cc2cnc3nc(N)nc(N)c3c2C)c1
5. Cc1cccc2nc(-c3ccc(-c4cccc(CNCC5CCCO5)c4)cc3)[nH]c12.O=C(O)C(F)(F)F (stereo not given)
6. Cc1cc(Nc2ccc(C(C)(C)C)cc2)c2[nH]ncc2n1.Cl
7. CC(C)(C)OC(=O)Nc1cccc(-c2csc(NC(=N)N)n2)c1

RESULT:
1. 65%
2. 100%
3. 55%
4. 76%
5. 50%
6. 63%
7. 83%

----------
test system: Plasmodium falciparum; test: GSK_TCMDC: Inhibition of Plasmodium falciparum 3D7 in whole red blood cells, using parasite LDH activity as an index of growth. Test compounds present at 2uM; assay type: functional
endpointLabel: Inhibition (%)
Numbers only, in %.

Some solved cases for reference:
- smilesRepr: "Cl.O=S(=O)(c1ccc(OCc2ccc(Cl)cc2)cc1)c1cc2c(cc1O)CCN(C1CCC1)CC2"
  Inhibition, %: 99
- smilesRepr: "CC(C)C[C@H](NC(=O)c1ccc(OCCN2CCOCC2)cc1)C(=O)N[C@H](/C=N/N1CCN(C)C1=O)CCc1ccccc1"
  Inhibition, %: 90
- smilesRepr: "OCCOCn1cnc2cnc(N[C@H]3OC[C@H](O)[C@@H](O)[C@@H]3O)nc21"
  Inhibition, %: 82
- smilesRepr: "O=C(O)C(F)(F)F.O=S(=O)(NCCN1CCCC1)c1ccc(-c2ccc(CNCc3ccccc3)cc2)cc1"
  Inhibition, %: 99

The record that follows has no Inhibition shown yet.
QUERY: Give Inhibition only, for `COc1ccc2nc(Nc3nc4cnccc4[nH]3)sc2c1` , using Plasmodium falciparum data.
RESULT: 88

----------
system: Plasmodium falciparum; experiment: GSK_TCMDC: Inhibition of Plasmodium falciparum 3D7 in whole red blood cells, using parasite LDH activity as an index of growth. Test compounds present at 2uM; assay type: functional
endpointLabel: Inhibition (%)
Give bare numbers, in %.

- compound: "O=C(n1c(-c2cc3ccccc3n2C(=O)C(F)(F)F)cc2ccccc21)C(F)(F)F"
  experimentalSystem: "Plasmodium falciparum"
  Inhibition [%]: 94
- compound: "CCCCCCCCS(=O)(=O)NCCCC1CCN(CCCCCNC(=O)C=Cc2ccc(Cl)c(Cl)c2)CC1"
  experimentalSystem: "Plasmodium falciparum"
  Inhibition [%]: 91
- compound: "Cl.O=C(Nc1ccc(C2=NC3CCCCC3N2)cc1)Nc1ccc(C2=NC3CCCCC3N2)cc1 (stereo not drawn)"
  experimentalSystem: "Plasmodium falciparum"
  Inhibition [%]: 88
- compound: "CN(C)Cc1cc(Nc2ccnc3cc(Cl)ccc23)ccc1O.Cl"
  experimentalSystem: "Plasmodium falciparum"
  Inhibition [%]: 100

Take each entry in turn and give its Inhibition.
1. O=C(O)C(F)(F)F.O=C1OC(c2ccccc2)(c2ccccc2)CN1CC1CCN(Cc2ccc(O)c(Cl)c2)CC1
2. Cc1nn(CCOC(=O)NC(NCC2COc3ccccc3O2)C(Cl)(Cl)Cl)cc1[N+](=O)[O-] (stereo not drawn)

RESULT:
[98, 99]

Could you tell me Inhibition for each of these compounds? They are listed below.
1. CC1CCCCN1CCCNC(=O)c1cccc(-c2cc3cc(Cl)c(Cl)cc3[nH]2)c1.O=C(O)C(F)(F)F (stereo not drawn)
2. COc1ccc(CN2CCC(C(=O)Nc3cccc(-c4cccc(Cl)c4)c3)CC2)cc1O
3. NC1=NC(c2ccccc2)(c2ccccc2)C(=O)N1Cc1ccccc1Br.O=CO

RESULT:
[94, 91, 93]

Respectfully, I request Inhibition for each entry included below.
1. O=C(Nc1cc(Cl)cc(Cl)c1)c1cc(Cl)c(=O)n(Cc2cccc(Cl)c2)c1
2. Cc1cccc2nc(-c3cccc(-c4cccc(NC(=O)COc5ccccc5C(N)=O)c4)c3)[nH]c12
3. CC(C)(C)c1ccc(CNC(=O)c2ccc(-c3nc4ccc(Cl)cc4[nH]3)cc2)cc1
4. Cc1ccc2c(Cc3cnc(N)nc3N)cc(C)c(N)c2n1.Cl
5. CC1(C)C(=O)N=C2C1=C(O)C(=O)c1ccccc12
6. Br.CC1(C)N=C(N)N=C(N)N1OCCCOc1cccc(C(=O)O)c1
7. O=C(CSc1nc(-c2ccccc2Cl)ns1)Nc1cccc(F)c1

RESULT:
1: 100; 2: 100; 3: 93; 4: 91; 5: 93; 6: 94; 7: 93

For every item below, please supply its Inhibition.
1. CCc1cccc(OCC2CCCN(c3ccc(C(=O)NC4CC4)cn3)C2)c1 (stereo not drawn)
2. CC(C)C(=O)n1ncc2c3c(N)nc(N)nc3ccc21
3. CCC(C)CN1CCN(c2ccc(NC(=O)c3cccs3)cc2)CC1C.O=C(O)C(F)(F)F (stereo not drawn)

RESULT:
1. 94
2. 87
3. 94

Hi! Can you tell me Inhibition for each of these compounds?
1. CCn1c2ccccc2c2cc(C=NN=c3cc(C)[nH]c4ccccc34)ccc21
2. CC(C)NCc1ccc(-c2cccc(-c3nc4cc(F)ccc4[nH]3)c2)cc1.O=C(O)C(F)(F)F

RESULT:
1. 100
2. 100

For each listed entry, give its Inhibition.
1. COc1ccc(CN2CCCN(Cc3cccc(NC(=O)c4cc5ccccc5s4)c3)CC2)cc1.O=C(O)C(F)(F)F
2. CN1CCCN(c2ccnc3cc4c(cc23)N(C(=O)c2ccc(C(F)(F)F)cc2)CC4)CC1.Cl
3. CC(C)Cn1cc(C2CCN(CCN3CCC(CNC(=O)c4ccc(-c5ccc(C#N)cc5)cc4)CC3)CC2)c2ccccc21

RESULT:
94
100
100

// each compound listed below needs its Inhibition
1. O=C(NCc1ccc(C(=O)NC2CCCCCC2)cc1)c1ccc(O)c(-c2ccc(Cl)c(Cl)c2)c1
2. Br.CC(CON1C(N)=NC(N)=NC1(C)C)Cc1ccc(Cl)cc1Cl (stereo not drawn)

RESULT:
1. 83
2. 92

For every record below, what is its Inhibition?
1. O=C(NC1CCC(N2CCN(c3cccc(C(F)(F)F)c3)CC2)CC1)c1cc2ccccc2[nH]1 (stereo not drawn)
2. Fc1cccc(Nc2nc(NCc3ccc(Cl)c(Cl)c3)nc(Nc3cccc(F)c3)n2)c1

RESULT:
1: 99; 2: 99

----------
Hi there, I'd appreciate the recorded Inhibition for every entry that follows.
system: Plasmodium falciparum; assay: GSK_TCMDC: Inhibition of Plasmodium falciparum 3D7 in whole red blood cells, using parasite LDH activity as an index of growth. Test compounds present at 2uM; format: functional
Numbers only, in %.

Some solved cases for reference:
- compound: "O=C(O)C(F)(F)F.c1ccc(CCNCc2ccc(-c3cccc(CNc4ccc5ncccc5c4)c3)cc2)cc1"
  endpointLabel: "Inhibition"
  unitSpec: "%"
  readoutNumber: 91
- compound: "COc1cc(NC(=O)C(c2ccc(Cl)cc2)C(C)C)cc(OC)c1OC (centres undefined)"
  endpointLabel: "Inhibition"
  unitSpec: "%"
  readoutNumber: 100
- compound: "Cc1ccc(NC(=O)c2ccc(CN3CCCN(Cc4cccc(Cl)c4)CC3)cc2)cc1C.O=C(O)C(F)(F)F"
  endpointLabel: "Inhibition"
  unitSpec: "%"
  readoutNumber: 84

Working through the 6 compounds below one at a time, give Inhibition for each.
1. Cc1[nH]c(C)c(-c2ccc(Oc3ccc(Cl)cc3)cc2)c(=O)c1Br
2. Cl.OCCNc1nc(Nc2cccc(O)c2)nc2ccccc12
3. CNCCNCc1ccc(-c2ccc(-c3nc4cc(C(F)(F)F)ccc4[nH]3)cc2)cc1.O=C(O)C(F)(F)F
4. O=C(Nc1ccc(C(F)(F)F)cc1)c1cccc(S(=O)(=O)NC2CCN(CC3CCCCC3)C2)c1.O=C(O)C(F)(F)F (centres undefined)
5. Cc1ccc(Nc2nccc(NCC(O)c3cccc(F)c3)n2)cc1 (centres undefined)
6. CC(=O)N(Cc1nc(-c2cc(C(F)(F)F)cc(C(F)(F)F)c2)cs1)c1c(C)cccc1C

RESULT:
97
96
99
98
95
100

----------
Hi there, I'd appreciate the recorded Inhibition for every entry that follows.
tested on: Plasmodium falciparum; experiment: GSK_TCMDC: Inhibition of Plasmodium falciparum 3D7 in whole red blood cells, using parasite LDH activity as an index of growth. Test compounds present at 2uM; assay type: functional
Give bare numbers, in %.

- compound: "COc1ccc(C(=O)N2CCC3(CC2)C(=O)N(CC(=O)NCC2CCCCC2)CN3c2ccccc2)c(OC)c1"
  Inhibition (%): 100

Batch lookup, Inhibition per entry.
1. O=C(NC1CCCC1)c1cc2c(=O)n3ccccc3nc2[nH]/c1=N/CCc1ccccc1
2. O=C(/C=C/c1ccc(Cl)c(Cl)c1)NCCCCCCN1CCCN(C(=O)Nc2ccc(F)c(Cl)c2)CC1

RESULT:
1. 100
2. 98

# batch: return Inhibition for each of the 3 compounds below
1. COc1ccc(C(=O)O)cc1OCc1ccccc1
2. O=[N+]([O-])c1ccc(C(O)P(=O)(c2ccccc2)c2ccccc2)cc1 (centres undefined)
3. COc1ccc(CNCCc2cccs2)cc1-c1cccc(S(=O)(=O)NCCN2CCCC2)c1.O=C(O)C(F)(F)F

RESULT:
[99, 98, 98]

Each compound below has a reported value. Please supply its Inhibition.
1. Fc1cccc(Cl)c1-c1nc(NCCC(c2ccccc2)c2ccccc2)no1
2. COc1ccc(N2CCN(CCCCNC(=O)c3ccc(NC(=O)c4ccc(Cl)cc4)cc3)CC2)c(C)c1
3. Cc1cnc(-c2ccc(NC(=O)N3CCc4cc5nccc(N6CCN7CCC[C@H]7C6)c5cc43)c3ccccc23)o1.Cl

RESULT:
1. 99
2. 100
3. 100
